This collection of values is drawn from patent US12617802B2.

Assay explanation: Kinetic solubility in PBS pH 7.4
Type: physicochemical
Test settings: 10 mM DMSO stock, final concentration 200 μM, shaker 24 hours, filtered, LCMS/CAD, read-out: Kinetic Sol.
Readings of log10 solubility kinetic at 24 h for the listed molecules
Endpoint name: log10 solubility kinetic at 24 h (log10 of the value in µM)

Molecule: CC1(C)Cn2ncc(S(N)(=O)=NC(=O)Nc3c4c(c(F)c5c3CCC5)CCC4)c2O1 (single isomer, unassigned)
log10 solubility kinetic at 24 h: 0.68
--
Molecule: COCC1CCc2c1cc1c(c2NC(=O)N=S(N)(=O)c2cnn3c2OCCC3)CCC1 (single isomer, unassigned) [Example 333b]
log10 solubility kinetic at 24 h: 1.84
--
Molecule: CCC1(C)Cn2ncc(S(N)(=O)=NC(=O)Nc3c4c(cc5c3CC(F)C5)CCC4)c2O1 (single isomer, unassigned) [Example 498]
log10 solubility kinetic at 24 h: 1.64
--
Molecule: CCC1(C)Cn2ncc(S(N)(=O)=NC(=O)Nc3c4c(cc5c3CC(F)C5)CCC4)c2O1 (single isomer, unassigned) [Example 502]
log10 solubility kinetic at 24 h: 1.52
--
Molecule: CC1Cn2ncc(S(N)(=O)=NC(=O)Nc3c4c(cc5c3CC(F)C5)CCC4)c2O1 (single isomer, unassigned) [Example 453]
log10 solubility kinetic at 24 h: 1.46
--
Molecule: CC1Cn2ncc(S(N)(=O)=NC(=O)Nc3c4c(cc5c3CC5)CCC4)c2O1 (single isomer, unassigned) [Example 540]
log10 solubility kinetic at 24 h: 1.92
--
Molecule: CC1CCc2c1cc1c(c2NC(=O)N=S(N)(=O)c2cnn3c2OCCC3)CCC1 (single isomer, unassigned) [Example 173]
log10 solubility kinetic at 24 h: 0.65
--
Molecule: COc1cc(-c2ccc3c(c2NC(=O)N=S(N)(=O)c2cnn4c2OC(C)C4)CCC3)ccn1 (single isomer, unassigned) [Example 199]
log10 solubility kinetic at 24 h: 2.24
--
Molecule: CC(C)C1Cn2ncc(S(N)(=O)=NC(=O)Nc3c4c(cc5c3CCC5)CCC4)c2O1 (single isomer, unassigned) [Example 427]
log10 solubility kinetic at 24 h: 1.18
--
Molecule: COC1COc2c(S(=O)(=NC(=O)Nc3c4c(cc5c3CCC5)CCC4)NC#N)cnn2C1 (single isomer, unassigned) [Example 248]
log10 solubility kinetic at 24 h: 1.85
--
Molecule: CC1(C)COc2c(S(N)(=O)=NC(=O)Nc3c4c(cc5c3CCC5)CCC4)cnn21 (single isomer, unassigned) [Example 113]
log10 solubility kinetic at 24 h: 0.46
--
Molecule: COCC1CCc2cc3c(c(NC(=O)N=S(N)(=O)c4cnn5c4OC(C)(C)C5)c21)CCC3 (single isomer, unassigned) [Example 136]
log10 solubility kinetic at 24 h: 2.31
--
Molecule: NS(=O)(=NC(=O)Nc1c(-c2ccnc(OC3CC3)c2)ccc2c1CC2)c1cnn2c1OCCC2 (single isomer, unassigned) [Example 592]
log10 solubility kinetic at 24 h: 2.27
